# protocol-details: yeast display, Sf9 membrane polyspecificity reagent, FACS + sequencing; frameworks hold sequencing errors
outcome-measure: polyreactivity (PSR sort gate)

# count of solved cases: 4
biosequence | polyreactivity (PSR sort gate)
QVQLVESGGGLVQAGGSLRLSCAASGRTIRVNAMGWYRQAPRKERELVAAISRSTGDTYYADSVKGRFTNSRDNAKNTVYLQMHSLKPEDTAVYYCAADVPGGEGDYAYEYWGQGTQVNVSS | low polyreactivity
QVQLVESGGGLVQAGGSLRLSCAASGRTFGYYAMGWYRQAPGKERELVASISSSGGNTYYADSVKGRFTISRDNAKNTVYLQMNSLKPEDTAVYYCAATYGWWPRDYYYWGQGTQVTVSS | high polyreactivity
QVQLVESGGGLVQAGGSLRLSCAPSGGTFVTYAMGWYIQAPGKERELVAAITTGGSTYYADSVKGRFTISRDNAKNTVYLQMNSLKPEDTAVYYCAAVYTGSGKRYYKGYYWGQGTQVTVSS | low polyreactivity
QVQLVEYVGGLVQAGGSLRLSCAASGRIFQYYARGWYRQAPGKERELVAAINSSGGRTYYADSVKGRFTISRDNAKNTVYLQMNSLKPEDTAVYDCNAVLSTRGMDYWGQGTQVTVSS | high polyreactivity

For the next question, use this sequence.
Given QVQLGESGGGLVHAGGSLRLSCAASGFIFGYYAMGWYRQAPGKERELVAAISQSTGSTYYADSVKGRFTISRDTAKNTVYLQMNSLKPEATAVYYCNAEGPEFTTWGYVYWAWGYGYWGQGTQVTVSS , state its recorded polyreactivity (PSR sort gate).
low polyreactivity

----------
# protocol-details: yeast display, Sf9 membrane polyspecificity reagent, FACS + sequencing; frameworks hold sequencing errors
outcome-measure: polyreactivity (PSR sort gate)

Examples with their reported polyreactivity (PSR sort gate) follow.
biosequence | result
QVQLVESGGGLVQAGGSLRLSCAASGSTFYINVMGWYIQAPGKERELVAAIRRRGGSTYYADSVKGRFTISRDNEKNTVYLQMNSLKPEDTAVYYCNAFSITFYDFNSWGQGTQVTVSS | low polyreactivity
QVQLVDSGGGLVQAGGTLRLSCAASGSTFRYYAMGWYRQAPGKERELVAAISWNGGRTYYADSVKGRFTISRDNAKNTVYLQMNSLKPEDSAVYYCDAVHYVAYYGYDFWGQGTQVTVSS | high polyreactivity
QVQLVESGGGLVQAGGSLRLSCAASGSTFGPYAMGWYRPAPGKEMELVATITRNGGSTYYADSVKGRFTISRDNAKNTVYLQMNSLKPEDTAVYYCNAEGRWSSFTQRMDYWGQGTQVTVSS | low polyreactivity
QVQLVESGGGLVQAGGSLRLSCAASGRIFDANAMGWYRQAPGKERELVAAITYSGGRTYYADSVKGRFTISRDNAKNTVYLQMNSLKPEDTAVYYCAKRYAYIYDSWGQGTQVTVSS | low polyreactivity

Please find the next sequence below.
Consider the sequence QVQLVESGGGLVQAGGSLRLSCSACGGIFDWYAMGWYRQAPGKERELVAAIDFSGDSTYYADSVKGRFTISRDNAKNTVYLQMNSLKPEDTAVYYCAAETNTWYLFDYWGQGTQVTVSS and give its measured polyreactivity (PSR sort gate).
high polyreactivity

----------
# protocol-details: yeast display, Sf9 membrane polyspecificity reagent, FACS + sequencing; frameworks hold sequencing errors

biosequence | polyreactivity (PSR sort gate)
QVQLVESGGGLVQAGGSLRLSCAASGRIFGSYAMGWYRQAPGKERELVAVITKRGDSTYYADSVKGRFTISRDNAKNTVYLQMNSLKPEDTAVYYCNAGRVYYSNGYDYWGQGSQVTVSS | low polyreactivity
QVQLVESGGGLVQAGGSLRLSCAHSGFTFTRNAMGWYRQSPGKETELVATISGSGGGTYYADSVKGRFTISRDNAKNTVYLQMNRLKPEDTAVYYCNARRLYSWQGTARYDFWGQGTQVTVSS | low polyreactivity
QVQLVESGGGLVQAGGSLRFSCAASGTFDYYDMGWYRQAPGKEWELVAGITSGGSTDYADSEKGRFTISRDNAKNTVYLQMNSLKPEDTAVYYCAADPFRIHTYDYWGQGTQVTVSS | low polyreactivity

----------
# protocol-details: yeast display, Sf9 membrane polyspecificity reagent, FACS + sequencing; frameworks hold sequencing errors
outcome-measure: polyreactivity (PSR sort gate)

Consider the worked cases shown below.
biosequence | result
QVQLVESGGGLVQAGGSLRLSCAGSGNIFSTYAMGWYRPAPGKVRELVASISENGGSTYYADSVKGRFTISRDNAKNTVYLQMNSLKPEDTAVYYCNADAYVYFDDGDYWGQGTQVTVSS | low polyreactivity
QVQLVESGGGLVQAGGSLRLSCAASGSTFEAYAMGWYRQGPGKERELVAAINFTGGRTYYADSVKGRFTISRDNAKNTVYLQMNSLKPEDTAVYYCAARKWGVPYIDNDYWGQGTQVTVSS | low polyreactivity
QVQLVESGGGLDQAGGSLGLSCAASGFTFTGYTMGWYRQAPGKERELVATISGSGGNTYYADSVKGRFTISRDNAKNTVYLQMNSLKPEETAVYYCARRRSGPRVLYYYWGQGTQVTVSS | low polyreactivity
QVQLVESGGGLVQAGGSLRLSCAASGSIFDRNAMGWYRQAPGKERELVAAISFSGGSTYYADSVKGRFTISRDNAKNTVYLQMNSLKPEDTAVYYCAKAGRYANLPYVYWGQGTQVTVSS | high polyreactivity
QVQLVESGGGLVQAGGSLRLSCAASGSTLPRYAMGWYRQAPGKEREFVAAMTWRGGSTYYADSVKGRFTISRDNAKNTVYLQMNSLKPEDTAVYYCNTHRNGGSHRRYNYWGQGTQVTVSS | high polyreactivity

List polyreactivity (PSR sort gate) for every entry below, keeping the order given.
1. QVQLVESGGGLVQAGGSLRLSCAASGSTFYYNAMRWYRQAPGKERELVAAITGSGDSTYYADSVKGRFTISRDNAKNTVYLQMNSLKPEDTAVYYCAADTYSTYWGQGTQVTVSS
2. QVQLLESGGGLVQAGGSLRLSCAASGFIICYNGMGWYRQAPGKERELVAGITYSDGSTYYADSVKGRFTISRDNAKITVYLQMNSLKPEDTAVYYCAVDVFYYWAEDYDYWGQGTQVTVSS
3. QVQLVESGGGLVQAGGRLRLSCAASGRIFKDNAMGWYRQAPGKERELVAAISSGASTSYADSVKGRFTISRDNAKNTVYLQMNSLKPEDTAVYYCNRGGDLYYPGWLFDYWGQGTQVTVSS
4. QVQLVESGGGLVQAGGSLRLSCAASGSTFNAYVMGWYRQAPGKERELVAAITRGGSTNYADSVKGRFTISRDNAKNTVYLQMNSLKPEDTAVYDCAARGPWVIPYDYWGQGTQVTVSS
5. QVQLVESGGGLVQAGGSLRLTCAASRSIFYPNAMGWYRQAPGKETELVAAISSSGGTNYADSVKGRFTISRDNAQNTVYLQMNSLKPEDTAVYYCNARDKVRYRYSLMDYWGQGTQVTVSS
6. QVQLVDSGGGLVQAGGSLRLSCAASGSTFVPNAMGWYRQAPGKERELVASITSDGGTYYADSVKGRFTISRDNAKNTVYLQMNSLKPEDTAVYYCAADDNGVWVISYWWFDYWGQGTQVTVSS

1: low polyreactivity; 2: low polyreactivity; 3: low polyreactivity; 4: low polyreactivity; 5: low polyreactivity; 6: high polyreactivity

----------
# protocol-details: yeast display, Sf9 membrane polyspecificity reagent, FACS + sequencing; frameworks hold sequencing errors
outcome-measure: polyreactivity (PSR sort gate)

Recorded results for 4 sequences are shown here.
biosequence | polyreactivity (PSR sort gate)
QVQLVESGGGLVQAGGSLRLSCAASGSIFYINDMGWYRQAPGTERELVAAISWSGGTTYYADSVKGRFTISRDNAKNTVYLQMNSLKPEDTAVYYCATDSFFLFPWGLSDYWGQGTQVTVSS | low polyreactivity
QVQLVESGGGLVQAGGSLRLSCAASGSTFSVNAMGWYRQAPGKEREFVAAITGDGVTTYYADSVKGRFTISRDNAKNTVYLQMNSLKPEDTAVYYCAAEDIRQTTGYDYWGQGTQVTVSS | high polyreactivity
QVQLVESGGGLVQAGGSLRLSCAASGFTFRLYAMGWYRPAPGKERELVARISSGGSTHYADSVKGRFTISRDNAKNTVSLQMNSLKPEDTAVYYCAAGWGYWRSYGSWGQGTQVTVSS | high polyreactivity
QVQLVESGGGLVQAGGSLRLSCAASGFTFLDSYAMGWYRQAPGKERELVAGITWSVGTTYYADSVKGRFTISRDNAKNTVYLHMNSLKPEDTAVYYCNAVIDVHDPEYDYWGQGTQVTVSS | low polyreactivity

Query sequence follows.
I have this sequence here, QVQLVESGGGLVQAGGSLRLSSAASGRIFSDNVMGWYRQAPGKERELVATITSTGGTYYADSVKGRFTISRDNAKNTVYLQMNSLKPEDTAVYYCNKATLADWWLYPRYNYWGQGTQVTVSS , and I need its recorded polyreactivity (PSR sort gate).
low polyreactivity

// provenance: the nanobody polyreactivity screen of Harvey et al. (2022)
